system: MDCK-II; experiment: Cytotoxicity against MDCK2 cells assessed as reduction in cell viability at 10 uM after 72 hrs by MTT assay; assay type: cell-based, Canis lupus familiaris; conditions: dog
result.type: Activity

Cc1cc(Nc2ccc([N+](=O)[O-])cc2)nc(-c2ccccc2)n1 = Non-Toxic
Cc1cc(Nc2cccc(Br)c2)nc(-c2ccccc2)n1 = Non-Toxic
Cc1cc(Nc2cccc([N+](=O)[O-])c2)nc(-c2ccccc2)n1 = Non-Toxic
Cc1cc(Nc2ccc([N+](=O)[O-])c(Cl)c2)nc(-c2ccccc2)n1 = Non-Toxic
Cc1cc(Nc2ccc(C#N)c(C)c2)nc(-c2ccccc2)n1 = Non-Toxic

Hey, quick one: what's Activity for each of these?
1. Cc1cc(Nc2ccc(C#N)c(C#N)c2)nc(-c2ccccc2)n1
2. Cc1cc(Nc2ccc3c(c2)C(=O)NC3=O)nc(-c2ccccc2)n1
3. COc1ccc(Nc2cc(C)nc(-c3ccccc3)n2)cc1C(F)(F)F
4. COc1ccc(Nc2cc(C)nc(-c3ccccc3)n2)cc1F

[out]
1. Non-Toxic
2. Non-Toxic
3. Toxic
4. Non-Toxic

Look up Activity for the entries below, preserving their order.
1. COc1cccc(Nc2cc(C)nc(-c3ccccc3)n2)c1
2. Cc1cc(Nc2ccc3c(c2)OCCO3)nc(-c2ccccc2)n1

[out]
1. Non-Toxic
2. Non-Toxic
